Just for reference, patent US20100280227A1 is where these values come from.

target: T1, V3-11 Fab
T1 construct: soluble Fab in SPR
T1 sequence (VH, as listed by the source, chain 1 of 2): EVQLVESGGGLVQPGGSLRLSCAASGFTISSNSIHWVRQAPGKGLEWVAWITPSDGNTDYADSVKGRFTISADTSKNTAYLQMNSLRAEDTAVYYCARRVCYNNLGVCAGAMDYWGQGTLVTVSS
T1 sequence (VL, as listed by the source, chain 2 of 2): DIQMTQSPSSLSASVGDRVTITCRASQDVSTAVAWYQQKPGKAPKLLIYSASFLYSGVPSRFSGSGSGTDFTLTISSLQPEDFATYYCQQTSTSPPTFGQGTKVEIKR
assay-procedure: phage competition ELISA, ECD in solution
measured-metric: IC50 (nM)
Entry rule: numbers only, all in nM.

## Task Given mouse BR3 extracellular domain (receptor, also called mBR3-ECD; mBR-ECD) MGARRLRVRSQRSRDSSVPTQCNQTECFDPLVRNCVSCELFHTPDTGHTSSLEPGTALQPQEGS , state its recorded IC50.
## Result 8.4
